# ASSAY_TARGET: BKV serotype III chimeric infectious virus (VP1 of isolate AS) (BK virus serotype III)
# PROTOCOL: cell-based or functional assay
RECORDED_ENDPOINT: neutralization EC90

Field: example entries. Status: answers known.
BINDER	neutralization EC90
NEG447 (antibody, human IgG1, lambda, V domains shown) VH: QVQLQESGPGLVKPSETLSLTCTVSGGSISRDYWSWVRQPPGAGLEWIGNIYYSGSTNYNPSLKSRVTISVATNKKQFSLKLTSVTAADTAVYYCARVPGCSSTSCIDGWFDPWGQGILVTVSS VL: QSVLTQPPSLSAAPGQKVTISCSGSSSNIGNTYVSWYQQLPGTAPKLLIYDNNKRPSGIPDRFSGSKSGTSATLGITGLQTGDEAVYYCGTWDSSLSAWVFGGGTRLTVLG	> 100 µg/mL
P7G11A (antibody, human IgG1, lambda, V domains shown) VH: QVQLQESGPGLVKPSQTLSLTCTVSGGSISSGGYSWSWIRQPPGKGLEYIGYIYYRGTTYYNPSLKSRVTISVDTSNNQISLKLSSVTAADTAVYYCARALTHLVGVGWFDPWGQGTMVTVSS VL: QSVLTQPPSVSAAPGQKVTISCSGGSSNLGSNYVSWYQQLPGTAPKLLIYDNNKRPSGIPDRFSGSKSGTSATLGITGLQTGDEADYYCGTWDGSLSAWVFGGGTKVTVLG	> 100 µg/mL
P165E2 (antibody, human IgG1, lambda, V domains shown) VH: QVQLQESGPGLVKPSETLSLTCTVSGGSISRDYWTWVRQPPGEGLEWIGNIYYSGSTNYNPSLKSRVTISVAASKKQFSLKLTSVTAADTAVYYCARVPGCSSTSCIDGWFDPWGQGILVTVSS VL: QSVLTQPPSLSAAPGQRVTISCSGSSSNIGNTYVSWYQQLPGTAPKLLIYDNNKRPSGIPGRFSGSKSGTSATLGITGLQTGDEAAYYCGTWDSSLSAWVFGGGTRLTVLG	> 100 µg/mL
P8D11C (antibody, V domains shown) VH: QVQLVESGGTLVQPGGSLRLSCAASGFTFQNYWMTWVRQAPGKGLEWVANIKKDGSEKYYVDSVRGRFTISRDNAKNSLFLQMNSLRPEDTAVYFCATVRSGRYFALDDWGQGTLVTVSS VL: QSVLTQPPSVSVAPGKTARITCGGDNIGSRPVHWYQQKPGQAPILVVYDDSNRPSGIPERFSGSNSGNTATLTISRVEAGDEADYYCQVWSSSTDHPFGGGTKVTVLG	0.51 µg/mL
P8D11B (antibody, V domains shown) VH: QVQLVESGGTLVQPGGSLRLSCAASGFTFKNYWMTWVRQAPGKGLEWVANIKKDGSEKYYVDSVRGRFTISRDNAKNSLFLQMNSLRPEDTAVYFCATVRSGRYFALDDWGQGTLVTVSS VL: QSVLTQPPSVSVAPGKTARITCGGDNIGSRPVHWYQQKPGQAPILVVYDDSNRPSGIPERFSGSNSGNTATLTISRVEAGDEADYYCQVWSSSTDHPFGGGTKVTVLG	0.5 µg/mL

Quick one: give measured neutralization EC90 for P8D11A (antibody, V domains shown) VH: QVQLVESGGTLVQPGGSLRLSCAASGFTFSNYWMTWVRQAPGKGLEWVANIKKDGSEKYYVDSVRGRFTISRDNAKNSLFLQMNSLRPEDTAVYFCATVRSGRYFALDDWGQGTLVTVSS VL: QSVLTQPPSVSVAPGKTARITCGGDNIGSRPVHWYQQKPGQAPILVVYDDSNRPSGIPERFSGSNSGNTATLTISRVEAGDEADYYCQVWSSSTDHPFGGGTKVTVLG
0.59 µg/mL

Quick one: give measured neutralization EC90 for P7G11 (antibody, human IgG1, lambda, V domains shown) VH: QVQLQESGPGLAKPSQTLSLTCSVSGGSISSGGYSWSWIRQPPGKGLEYIGYIYYRGTTYYNPSLKSRITMSVDTSNNQISLKLTSVTAADTAVYYCARALTHLVGVGWFDPWGQGTMVTVSS VL: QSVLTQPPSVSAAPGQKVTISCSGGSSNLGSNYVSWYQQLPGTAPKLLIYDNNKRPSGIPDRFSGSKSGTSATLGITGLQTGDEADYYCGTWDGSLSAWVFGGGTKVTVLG
> 100 µg/mL

Quick one: give measured neutralization EC90 for NEG447A (antibody, human IgG1, lambda, V domains shown) VH: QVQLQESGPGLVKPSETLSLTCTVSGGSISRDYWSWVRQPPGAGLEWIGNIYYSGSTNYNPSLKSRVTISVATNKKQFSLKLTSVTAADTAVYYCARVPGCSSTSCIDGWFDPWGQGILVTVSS VL: QSVLTQPPSVSAAPGQKVTISCSGSSSNIGNTYVSWYQQLPGTAPKLLIYDNNKRPSGIPDRFSGSKSGTSATLGITGLQTGDEADYYCGTWDSSLSAWVFGGGTRLTVLG
> 100 µg/mL

Data provenance is patent US20170088605A1.
